Origin of measurements: paper PMC11434840

- System: Escherichia coli ATCC 25922
- ASSAY PROTOCOL: Antimicrobial agar cup-plate assay, E. coli
- Format: cell-based
- CONDITION DETAILS: 0.1 mL of compound in DMF, overnight incubation, mean ± SD, at least three experiments

| MOLECULE | UNIT OF MEASUREMENT | Inhibition Zone (mm) E. coli |
| --- | --- | --- |
| CCc1cc2c(-c3ccccc3)cc(=O)oc2c2c(C)c(C)oc12 [Compound 3b] | mm | 16 |
| CCc1cc2c(C)cc(=O)oc2c2c(-c3ccccc3)coc12 [Compound 8a] | mm | 30 |
| CCc1cc2c(C)cc(=O)oc2c2c1oc1ccccc12 [Compound 6a] | mm | 23 |
| CCc1cc2c(C)cc(=O)oc2cc1OCC(=O)c1ccc(C)cc1 [Compound 7b] | mm | 20 |
| CCc1cc2c(-c3ccccc3)cc(=O)oc2cc1OCC(=O)c1ccc(OC)cc1 [Compound 7f] | mm | 23 |
| CCc1cc2c(-c3ccccc3)cc(=O)oc2c2c(-c3ccccc3)coc12 [Compound 8d] | mm | 30 |
| CCc1cc2c(C)cc(=O)oc2cc1OCC(=O)c1ccc(OC)cc1 [Compound 7c] | mm | 15 |
| COc1c2occc2cc2ccc(=O)oc12 [Xanthotoxin, reference compound] | mm | 25 |

* * *

TEST READOUT: melting point

| COMPOUND | RESULT |
| --- | --- |
| CCc1cc2c(-c3ccccc3)cc(=O)oc2c2c(-c3ccc(C)cc3)coc12 | 80 to 81 °C |
| CCc1cc2c(C)cc(=O)oc2c2c(-c3ccc(C)cc3)coc12 | 149 to 151 °C |
| CCc1cc2c(C)cc(=O)oc2cc1OCC(=O)c1ccccc1 | 165 to 166 °C |
| CCc1cc2c(-c3ccccc3)cc(=O)oc2c2c(C)c(C)oc12 | 90 to 92 °C |
| CCc1cc2c(C)cc(=O)oc2cc1OC(C)C(C)=O (stereo not drawn) | 95 to 97 °C |
| CCc1cc2c(-c3ccccc3)cc(=O)oc2cc1OC1CCCCC1=O (stereo not drawn) | 150 to 152 °C |
| CCc1cc2c(C)cc(=O)oc2c2c1oc1ccccc12 | 120 to 122 °C |
| CCc1cc2c(-c3ccccc3)cc(=O)oc2cc1OCC(=O)c1ccc(C)cc1 | 225 to 226 °C |
| CCc1cc2c(-c3ccccc3)cc(=O)oc2cc1OCC(=O)c1ccccc1 | 153 to 155 °C |

* * *

- Test system: Staphylococcus aureus ATCC 25923
- ASSAY PROTOCOL: Antimicrobial agar cup-plate assay, S. aureus
- Assay type: cell-based
- CONDITION DETAILS: 0.1 mL of compound in DMF, overnight incubation, mean ± SD, at least three experiments

| MOLECULE | TARGET SYSTEM | Inhibition Zone (mm) S. aureus |
| --- | --- | --- |
| CCc1cc2c(-c3ccccc3)cc(=O)oc2c2c1oc1ccccc12 | Staphylococcus aureus ATCC 25923 | 30 ± 1.414 mm |
| CCc1cc2c(-c3ccccc3)cc(=O)oc2c2c(-c3ccccc3)coc12 | Staphylococcus aureus ATCC 25923 | 23 ± 1.414 mm |
| CCc1cc2c(C)cc(=O)oc2c2c(-c3ccc(C)cc3)coc12 | Staphylococcus aureus ATCC 25923 | 30 ± 1.414 mm |
| CCc1cc2c(C)cc(=O)oc2c2c(-c3ccc(OC)cc3)coc12 | Staphylococcus aureus ATCC 25923 | 20 ± 0.8165 mm |
| CCc1cc2c(-c3ccccc3)cc(=O)oc2cc1OCC(=O)c1ccccc1 | Staphylococcus aureus ATCC 25923 | - |
| CCc1cc2c(-c3ccccc3)cc(=O)oc2c2c(-c3ccc(C)cc3)coc12 | Staphylococcus aureus ATCC 25923 | 22 ± 1.414 mm |
| CCc1cc2c(-c3ccccc3)cc(=O)oc2c2c(C)c(C)oc12 | Staphylococcus aureus ATCC 25923 | 22 ± 0.8165 mm |
| CCc1cc2c(-c3ccccc3)cc(=O)oc2cc1OCC(=O)c1ccc(C)cc1 | Staphylococcus aureus ATCC 25923 | - |
| CCc1cc2c(C)cc(=O)oc2cc1OC1CCCCC1=O (stereo not drawn) | Staphylococcus aureus ATCC 25923 | 24 ± 1.414 mm |

* * *

- Test system: Bacillus subtilis ATCC 14579
- ASSAY PROTOCOL: Photosensitizing assay (MIC before and after UV irradiation, agar cup-plate)
- Assay type: cell-based
- CONDITION DETAILS: Bacillus subtilis, ATCC14579, light or radiation study; B. subtilis, without irradiation (antibacterial activity), 100 μL per cup; read-out: MIC (mg mL^−1) Control

| COMPOUND | MIC, µg/mL |
| --- | --- |
| CCc1cc2c(C)cc(=O)oc2cc1OCC(=O)c1ccc(OC)cc1 | 12500 |
| CCc1cc2c(C)cc(=O)oc2c2c(-c3ccc(C)cc3)coc12 | 780 |
| CCc1cc2c(C)cc(=O)oc2c2c(-c3ccccc3)coc12 | 310 |
| CCc1cc2c(-c3ccccc3)cc(=O)oc2c2c1oc1ccccc12 | 3120 |
| CCc1cc2c(-c3ccccc3)cc(=O)oc2c2c3c(oc12)CCCC3 | 3120 |
| CCc1cc2c(C)cc(=O)oc2cc1OCC(=O)c1ccccc1 | 6250 |
| CCc1cc2c(-c3ccccc3)cc(=O)oc2c2c(C)c(C)oc12 | 3120 |
| CCc1cc2c(-c3ccccc3)cc(=O)oc2c2c(-c3ccc(OC)cc3)coc12 | 6250 |
| CCc1cc2c(C)cc(=O)oc2cc1OCC(=O)c1ccc(C)cc1 | 1500 |
| CCc1cc2c(-c3ccccc3)cc(=O)oc2cc1OC1CCCCC1=O (centres unmarked) | 3120 |
| CCc1cc2c(-c3ccccc3)cc(=O)oc2cc1OCC(=O)c1ccccc1 | 6250 |

* * *

pIC50 for assorted compounds
- TARGET SYSTEM: E. coli DNA gyrase (Escherichia coli)
- Construct: purchased John Innes Enterprises Ltd
- ASSAY PROTOCOL: In vitro DNA gyrase supercoiling inhibitory assay
- Assay type: biochemical
- CONDITION DETAILS: IC50 (μg mL^−1) DNA gyrase supercoiling, mean ± SD of three separate experiments
pIC50: −log10 of the molar value.

| CHEMICAL STRING | pIC50 |
| --- | --- |
| CCc1cc2c(-c3ccccc3)cc(=O)oc2c2c(-c3ccccc3)coc12 | 6.12 |
| CCc1cc2c(C)cc(=O)oc2c2c(-c3ccccc3)coc12 | 5.10 |
| CCc1cc2c(C)cc(=O)oc2c2c(-c3ccc(C)cc3)coc12 | 4.41 |

* * *

- Test system: Staphylococcus aureus ATCC 25923
- ASSAY PROTOCOL: Antimicrobial agar cup-plate assay, S. aureus
- Type: cell-based
- Design: key: -: no activity
- CONDITION DETAILS: 0.1 mL of compound in DMF, overnight incubation, mean ± SD, at least three experiments
TEST READOUT: Inhibition Zone (mm) S. aureus

| MOLECULE | RESULT |
| --- | --- |
| COc1c2occc2cc2ccc(=O)oc12 [Xanthotoxin, reference compound] | - |
| CCc1cc2c(C)cc(=O)oc2cc1OCC(=O)c1ccc(OC)cc1 | - |
| CCc1cc2c(-c3ccccc3)cc(=O)oc2cc1OCC(=O)c1ccc(OC)cc1 | - |
